Test: Pharmacokinetics of five components in rat plasma after oral administration of RPT, LPT and HPT extracts (UHPLC-MS/MS)
Conditions: male, SD, in vivo, 1.9 g/kg, rat plasma, oral RPT extract 1.9 g/kg, mean ± SD, n = 6, read-out: t1/2 (converted)
MEASUREMENT_TYPE: half-life (min)

> print(dat)
               compound.smiles  measurement.type  observed.measurement
1  COc1cc(C=CC(=O)O)cc(OC)c1OC         half-life                   416

----------
Measured AUCΔ0-∞ (dose-normalized), listed per entry.
Experiment: Pharmacokinetics and absolute bioavailability of five compounds after oral and i.v. administration (UHPLC-MS/MS)
Type: in vivo
Conditions: SD, rat, in vivo, po
Protocol: A Thermo Hypersil Gold C18 column (3.0 × 100 mm, i.d.; 3 μm) was used for chromatographic separation. An aqueous 10 mM ammonium acetate solution (A) and acetonitrile (B) were selected as the mobile phase components. […] The elementary pharmacokinetic parameters of plasma samples were analyzed by DAS 2.0 pharmacokinetic software. […]

COMPOUND	AUCΔ0-∞ (dose-normalized)
COc1cc(/C=C/C(=O)O[C@H]2[C@H](O)[C@@H](CO)O[C@@]2(CO)O[C@H]2O[C@H](COC(=O)c3ccc(O)cc3)[C@@H](O)[C@H](O)[C@H]2O)cc(OC)c1OC [TFSA, tenuifoliside A]	1.92 ± 0.85 ng·h/mL
COc1cc(C=CC(=O)OCC2OC(OC3(CO)OC(CO)C(O)C3OC(=O)C=Cc3cc(OC)c(O)c(OC)c3)C(O)C(O)C2O)cc(OC)c1O (stereo not shown) [DSS, 3,6′-disinapoyl sucrose]	2.86 ± 1.33 ng·h/mL
COc1cc(/C=C/C(=O)O[C@H]2[C@H](O)[C@@H](CO)O[C@@]2(CO)O[C@H]2O[C@H](CO)[C@@H](O)[C@H](O)[C@H]2O)ccc1O [A5, Sibiricose A5]	12.01 ± 2.00 ng·h/mL
COc1cc(C=CC(=O)OC2C(O)C(CO)OC2(CO)OC2OC(CO)C(O)C(O)C2O)cc(OC)c1O (stereo not shown) [A6, Sibiricose A6]	8.82 ± 2.40 ng·h/mL

----------
Test: Stability of the five analytes in rat plasma
Assay type: in vitro ADME
Conditions: rat, 4 weeks, 600 ng/mL

COMPOUND	UNIT_NAME	Long-term stability, Mean
COc1cc(/C=C/C(=O)O[C@H]2[C@H](O)[C@@H](CO)O[C@@]2(CO)O[C@H]2O[C@H](CO)[C@@H](O)[C@H](O)[C@H]2O)ccc1O	%	97.9
COc1cc(C=CC(=O)OC2C(O)C(CO)OC2(CO)OC2OC(CO)C(O)C(O)C2O)cc(OC)c1O (stereo not shown)	%	96.3
COc1cc(/C=C/C(=O)O[C@H]2[C@H](O)[C@@H](CO)O[C@@]2(CO)O[C@H]2O[C@H](COC(=O)c3ccc(O)cc3)[C@@H](O)[C@H](O)[C@H]2O)cc(OC)c1OC [TFSA, tenuifoliside A]	%	96.3
COc1cc(C=CC(=O)OCC2OC(OC3(CO)OC(CO)C(O)C3OC(=O)C=Cc3cc(OC)c(O)c(OC)c3)C(O)C(O)C2O)cc(OC)c1O (stereo not shown)	%	97.3

----------
Experiment: Pharmacokinetics of five components in rat plasma after oral administration of RPT, LPT and HPT extracts (UHPLC-MS/MS)
Details: male, SD, in vivo, 1.9 g/kg, rat plasma, oral HPT extract equivalent to 1.9 g/kg of RPT extract, mean ± SD, n = 6, read-out: Tmax
MEASUREMENT_TYPE: Tmax (min)

> print(dat)
               compound.smiles  measurement.type  observed.measurement
1  COc1cc(C=CC(=O)O)cc(OC)c1OC              Tmax                   4.2

----------
Short-term stability, Mean: recorded values
Experiment: Stability of the five analytes in rat plasma
Format: in vitro ADME
Conditions: rat, 5 h, 2 ng/mL

COMPOUND	Short-term stability, Mean, %
COc1cc(C=CC(=O)OCC2OC(OC3(CO)OC(CO)C(O)C3OC(=O)C=Cc3cc(OC)c(O)c(OC)c3)C(O)C(O)C2O)cc(OC)c1O (stereo not shown) [DSS, 3,6′-disinapoyl sucrose]	95.3
COc1cc(/C=C/C(=O)O[C@H]2[C@H](O)[C@@H](CO)O[C@@]2(CO)O[C@H]2O[C@H](CO)[C@@H](O)[C@H](O)[C@H]2O)ccc1O [A5, Sibiricose A5]	94.4
COc1cc(/C=C/C(=O)O[C@H]2[C@H](O)[C@@H](CO)O[C@@]2(CO)O[C@H]2O[C@H](COC(=O)c3ccc(O)cc3)[C@@H](O)[C@H](O)[C@H]2O)cc(OC)c1OC [TFSA, tenuifoliside A]	97.6
COc1cc(C=CC(=O)OC2C(O)C(CO)OC2(CO)OC2OC(CO)C(O)C(O)C2O)cc(OC)c1O (stereo not shown) [A6, Sibiricose A6]	91.5

----------
Test: Pharmacokinetics and absolute bioavailability of five compounds after oral and i.v. administration (UHPLC-MS/MS)
Type: in vivo
Settings: SD, in vivo, iv; rat, i.v. administration; A5 0.74, A6 1.16, DSS 1.60, TFSA 5.00, TMCA 0.31 mg/kg; n = 6; read-out: MRT0-t
MEASUREMENT_TYPE: MRT last (min)

> print(dat)
                                   molecule  measurement.type  observed.measurement
1  COc1cc(C=CC(=O)O)cc(OC)c1OC [TMCA, 3,4,5-trimethoxycinnamic acid]          MRT last                    15

----------
Experiment: Pharmacokinetics and absolute bioavailability of five compounds after oral and i.v. administration (UHPLC-MS/MS)
Format: in vivo
Conditions: rat, in vivo
MEASUREMENT_TYPE: F, absolute bioavailability

COMPOUND	OBSERVED_MEASUREMENT
COc1cc(/C=C/C(=O)O[C@H]2[C@H](O)[C@@H](CO)O[C@@]2(CO)O[C@H]2O[C@H](CO)[C@@H](O)[C@H](O)[C@H]2O)ccc1O	3.25 % of dose
COc1cc(/C=C/C(=O)O[C@H]2[C@H](O)[C@@H](CO)O[C@@]2(CO)O[C@H]2O[C@H](COC(=O)c3ccc(O)cc3)[C@@H](O)[C@H](O)[C@H]2O)cc(OC)c1OC [TFSA, tenuifoliside A]	1.17 % of dose
COc1cc(C=CC(=O)OCC2OC(OC3(CO)OC(CO)C(O)C3OC(=O)C=Cc3cc(OC)c(O)c(OC)c3)C(O)C(O)C2O)cc(OC)c1O (stereo not shown)	2.36 % of dose
COc1cc(C=CC(=O)OC2C(O)C(CO)OC2(CO)OC2OC(CO)C(O)C(O)C2O)cc(OC)c1O (stereo not shown)	2.95 % of dose

----------
Test: Stability of the five analytes in rat plasma
Type: in vitro ADME
Conditions: rat, 5 h, 600 ng/mL
Protocol: Stock standards of A5, A6, DSS, TFSA, TMCA and IS were prepared in methanol at a concentration of 1 mg/mL. A series of working standard solutions of the targeted compounds ranging from 10 to 20,000 ng/mL and the IS solution at 600 ng/mL were prepared by diluting the stock solutions with methanol and maintained at −20 °C. […]
MEASUREMENT_TYPE: Short-term stability, Mean (%)

COMPOUND	MEASUREMENT_TYPE	UNIT_NAME	OBSERVED_MEASUREMENT
COc1cc(/C=C/C(=O)O[C@H]2[C@H](O)[C@@H](CO)O[C@@]2(CO)O[C@H]2O[C@H](CO)[C@@H](O)[C@H](O)[C@H]2O)ccc1O	Short-term stability, Mean	%	95.2
COc1cc(/C=C/C(=O)O[C@H]2[C@H](O)[C@@H](CO)O[C@@]2(CO)O[C@H]2O[C@H](COC(=O)c3ccc(O)cc3)[C@@H](O)[C@H](O)[C@H]2O)cc(OC)c1OC [TFSA, tenuifoliside A]	Short-term stability, Mean	%	97.9
COc1cc(C=CC(=O)OC2C(O)C(CO)OC2(CO)OC2OC(CO)C(O)C(O)C2O)cc(OC)c1O (stereo not shown)	Short-term stability, Mean	%	94.7
COc1cc(C=CC(=O)OCC2OC(OC3(CO)OC(CO)C(O)C3OC(=O)C=Cc3cc(OC)c(O)c(OC)c3)C(O)C(O)C2O)cc(OC)c1O (stereo not shown)	Short-term stability, Mean	%	98.5

----------
Assay: Stability of the five analytes in rat plasma
Assay type: in vitro ADME
Conditions: rat, 24 h, 600 ng/mL
Experimental: Stock standards of A5, A6, DSS, TFSA, TMCA and IS were prepared in methanol at a concentration of 1 mg/mL. A series of working standard solutions of the targeted compounds ranging from 10 to 20,000 ng/mL and the IS solution at 600 ng/mL were prepared by diluting the stock solutions with methanol and maintained at −20 °C. […]
MEASUREMENT_TYPE: Auto-sampler stability, Mean

COMPOUND	OBSERVED_MEASUREMENT
COc1cc(C=CC(=O)OCC2OC(OC3(CO)OC(CO)C(O)C3OC(=O)C=Cc3cc(OC)c(O)c(OC)c3)C(O)C(O)C2O)cc(OC)c1O (stereo not shown)	97.7%
COc1cc(/C=C/C(=O)O[C@H]2[C@H](O)[C@@H](CO)O[C@@]2(CO)O[C@H]2O[C@H](CO)[C@@H](O)[C@H](O)[C@H]2O)ccc1O	94.2%
COc1cc(C=CC(=O)OC2C(O)C(CO)OC2(CO)OC2OC(CO)C(O)C(O)C2O)cc(OC)c1O (stereo not shown)	92.1%
COc1cc(/C=C/C(=O)O[C@H]2[C@H](O)[C@@H](CO)O[C@@]2(CO)O[C@H]2O[C@H](COC(=O)c3ccc(O)cc3)[C@@H](O)[C@H](O)[C@H]2O)cc(OC)c1OC [TFSA, tenuifoliside A]	98.2%

Numbers sourced from paper PMC7534330.
